Assay: Half life in mouse liver microsomes
Type: ADME, Microsome
property measured: half-life

*Q* Report measured half-life; entry is COc1cc2ncnc(Oc3cccc(NC(=O)Nc4cc(C(C)(C)C(F)(F)F)on4)c3)c2cc1OC
*A* > 1 h

###

Test system: Liver
Assay: Intrinsic clearance in dog liver microsomes
Assay type: ADME, Canis lupus familiaris, Microsome
property measured: CLH

*Q* Respond only with CLH recorded for COc1cc2ncnc(Oc3cccc(NC(=O)Nc4cc(C(C)(C)C(F)(F)F)on4)c3)c2cc1OC
*A* < 23 µL/min/mg

###

System: DU-145
Assay: Cytotoxicity against human DU145 cells expressing wild type BRAF after 72 hrs by cell titer blue assay
Format: functional, cell-based
Settings: DU-145, 72 h
property measured: EC50 (nM)
Use nM as the unit, but write only the number.

*Q* // fetch EC50; item: COc1cc2ncnc(Oc3cccc(NC(=O)Nc4cc(C(C)(C)C(F)(F)F)on4)c3)c2cc1OC [CEP-32496] ; system: DU-145
*A* 2910

###

Target: Hepatocyte growth factor receptor (Homo sapiens)
Sequence (P08581 whole entry): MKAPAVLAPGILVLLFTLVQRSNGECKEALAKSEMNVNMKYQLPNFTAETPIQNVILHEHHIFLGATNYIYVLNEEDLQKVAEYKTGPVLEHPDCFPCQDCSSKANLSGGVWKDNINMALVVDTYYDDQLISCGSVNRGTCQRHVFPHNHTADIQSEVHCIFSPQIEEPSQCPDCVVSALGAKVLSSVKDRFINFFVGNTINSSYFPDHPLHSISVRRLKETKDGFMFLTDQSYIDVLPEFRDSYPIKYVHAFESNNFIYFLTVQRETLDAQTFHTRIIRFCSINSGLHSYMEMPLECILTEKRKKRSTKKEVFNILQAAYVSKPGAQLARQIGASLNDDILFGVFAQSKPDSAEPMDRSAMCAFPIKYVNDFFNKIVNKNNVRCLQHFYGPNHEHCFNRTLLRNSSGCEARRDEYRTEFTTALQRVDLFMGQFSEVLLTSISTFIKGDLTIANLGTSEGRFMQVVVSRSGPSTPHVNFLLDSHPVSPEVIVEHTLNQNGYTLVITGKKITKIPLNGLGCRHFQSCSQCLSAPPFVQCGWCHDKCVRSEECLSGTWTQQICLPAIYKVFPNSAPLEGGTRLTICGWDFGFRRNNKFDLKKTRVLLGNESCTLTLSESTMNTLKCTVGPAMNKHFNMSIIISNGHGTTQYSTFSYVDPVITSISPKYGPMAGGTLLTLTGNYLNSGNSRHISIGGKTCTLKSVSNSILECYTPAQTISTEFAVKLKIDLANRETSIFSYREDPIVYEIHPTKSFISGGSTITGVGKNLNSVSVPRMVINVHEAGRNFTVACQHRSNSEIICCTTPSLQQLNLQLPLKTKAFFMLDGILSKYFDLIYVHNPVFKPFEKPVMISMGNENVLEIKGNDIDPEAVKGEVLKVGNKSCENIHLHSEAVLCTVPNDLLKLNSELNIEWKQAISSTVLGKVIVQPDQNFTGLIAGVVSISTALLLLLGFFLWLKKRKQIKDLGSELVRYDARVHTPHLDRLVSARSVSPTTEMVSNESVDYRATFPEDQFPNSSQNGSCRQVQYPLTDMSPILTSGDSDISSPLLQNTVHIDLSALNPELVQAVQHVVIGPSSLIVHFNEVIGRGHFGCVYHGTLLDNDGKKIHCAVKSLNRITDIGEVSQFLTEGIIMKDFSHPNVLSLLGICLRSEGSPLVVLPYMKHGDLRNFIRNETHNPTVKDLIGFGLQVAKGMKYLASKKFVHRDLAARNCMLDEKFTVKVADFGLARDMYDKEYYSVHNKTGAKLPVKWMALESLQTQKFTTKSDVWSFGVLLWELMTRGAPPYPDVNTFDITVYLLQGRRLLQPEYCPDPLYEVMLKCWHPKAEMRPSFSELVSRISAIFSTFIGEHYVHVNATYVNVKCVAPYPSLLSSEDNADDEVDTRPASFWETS
Test: Inhibition of cMET in human HEK293 cells after 1 hr by competition binding assay
property measured: Kd (µM)
Quick reminder: number only, in µM, skip the unit.

*Q* Specify measured Kd for COc1cc2ncnc(Oc3cccc(NC(=O)Nc4cc(C(C)(C)C(F)(F)F)on4)c3)c2cc1OC .
*A* 0.513

###

Target: Dual specificity mitogen-activated protein kinase kinase 2 (Homo sapiens, UniProt P36507)
Sequence (P36507 whole entry): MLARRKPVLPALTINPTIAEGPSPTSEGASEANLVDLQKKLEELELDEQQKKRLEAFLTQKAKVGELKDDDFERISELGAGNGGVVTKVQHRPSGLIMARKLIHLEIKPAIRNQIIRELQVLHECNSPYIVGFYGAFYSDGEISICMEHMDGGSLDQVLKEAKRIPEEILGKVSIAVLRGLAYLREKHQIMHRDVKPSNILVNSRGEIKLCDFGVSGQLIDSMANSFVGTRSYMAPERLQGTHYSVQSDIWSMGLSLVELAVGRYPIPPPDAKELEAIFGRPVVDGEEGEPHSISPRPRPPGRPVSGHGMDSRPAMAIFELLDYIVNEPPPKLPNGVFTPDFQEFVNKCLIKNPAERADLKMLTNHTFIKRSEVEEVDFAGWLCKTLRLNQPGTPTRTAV
Assay: Inhibition of MEK2 in human HEK293 cells after 1 hr by competition binding assay
property measured: Kd (µM)
Report as a plain number; the unit µM is understood.

*Q* Fetch value of Kd on Dual specificity mitogen-activated protein kinase kinase 2 (Homo sapiens, UniProt P36507) for COc1cc2ncnc(Oc3cccc(NC(=O)Nc4cc(C(C)(C)C(F)(F)F)on4)c3)c2cc1OC [CEP-32496] .
*A* 8.3

###

Test: Cmax in Cynomolgus monkey at 10 mg/kg, po
Format: ADME, organism-based, Macaca fascicularis
Design: dose 10 mg/kg, route oral
Conditions: in vivo
property measured: Cmax (µM)
Answer in µM, number only, no unit symbol.

*Q* Specify Cmax for COc1cc2ncnc(Oc3cccc(NC(=O)Nc4cc(C(C)(C)C(F)(F)F)on4)c3)c2cc1OC [CEP-32496] and stop.
*A* 4.3

###

pIC50: −log10 of the molar value.
property measured: pIC50

*Q* Look up Cytochrome P450 2C9 (Homo sapiens, UniProt P11712) data: pIC50 of COc1cc2ncnc(Oc3cccc(NC(=O)Nc4cc(C(C)(C)C(F)(F)F)on4)c3)c2cc1OC , then report it.
*A* < 5.00

###

Biological target: Phosphatidylinositol 4,5-bisphosphate 3-kinase catalytic subunit beta isoform (Homo sapiens, UniProt P42338)
Sequence (P42338 whole entry, canonical isoform): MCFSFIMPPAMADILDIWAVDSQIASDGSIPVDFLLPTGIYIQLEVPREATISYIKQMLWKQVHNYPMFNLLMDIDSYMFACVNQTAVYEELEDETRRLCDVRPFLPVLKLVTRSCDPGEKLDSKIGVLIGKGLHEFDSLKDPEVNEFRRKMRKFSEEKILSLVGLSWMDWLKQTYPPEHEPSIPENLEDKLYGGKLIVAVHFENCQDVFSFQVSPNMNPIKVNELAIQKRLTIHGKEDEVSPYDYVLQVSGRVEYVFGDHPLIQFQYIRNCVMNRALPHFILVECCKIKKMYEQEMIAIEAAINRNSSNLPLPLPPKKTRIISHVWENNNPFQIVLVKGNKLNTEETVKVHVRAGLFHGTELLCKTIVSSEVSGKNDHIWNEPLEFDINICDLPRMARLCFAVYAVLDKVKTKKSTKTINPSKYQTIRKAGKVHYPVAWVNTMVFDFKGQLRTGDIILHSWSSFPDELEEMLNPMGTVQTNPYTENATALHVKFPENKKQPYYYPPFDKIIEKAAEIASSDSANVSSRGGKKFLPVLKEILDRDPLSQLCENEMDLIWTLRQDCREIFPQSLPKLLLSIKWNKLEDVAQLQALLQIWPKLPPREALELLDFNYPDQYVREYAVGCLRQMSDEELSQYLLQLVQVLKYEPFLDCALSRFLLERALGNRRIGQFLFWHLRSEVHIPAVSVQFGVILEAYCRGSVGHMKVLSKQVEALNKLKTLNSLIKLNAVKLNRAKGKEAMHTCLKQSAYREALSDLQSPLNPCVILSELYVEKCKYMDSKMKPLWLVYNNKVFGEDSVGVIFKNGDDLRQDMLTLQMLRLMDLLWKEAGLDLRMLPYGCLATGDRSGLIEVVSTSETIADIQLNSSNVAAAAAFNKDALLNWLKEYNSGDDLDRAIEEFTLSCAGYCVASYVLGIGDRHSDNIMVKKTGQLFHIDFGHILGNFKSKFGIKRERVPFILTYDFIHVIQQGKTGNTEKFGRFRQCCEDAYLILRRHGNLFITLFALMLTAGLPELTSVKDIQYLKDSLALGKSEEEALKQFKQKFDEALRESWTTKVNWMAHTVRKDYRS
Assay: Inhibition of PIK3-CB in human HEK293 cells after 1 hr by competition binding assay
property measured: Kd

*Q* Dear colleague, please send me the reported Kd for COc1cc2ncnc(Oc3cccc(NC(=O)Nc4cc(C(C)(C)C(F)(F)F)on4)c3)c2cc1OC when you can.
*A* > 10 µM

###

Would you mind telling me the reported bioavailability of each entry?
Test: Oral bioavailability in Sprague-Dawley rat at 10 mg/kg
Assay type: ADME, organism-based
Conditions: in vivo
// note: answer is a bare numeric in %

*Q* Tell us which bioavailability value is on record for COc1cc2ncnc(Oc3cccc(NC(=O)Nc4cc(C(C)(C)C)nn4-c4ccccc4)c3)c2cc1OC
*A* 33

*Q* Could you please provide reported bioavailability for COc1cc2ncnc(Oc3cccc(NC(=O)Nc4cc(C(C)(C)F)on4)c3)c2cc1OC ? Thanks!
*A* 100

*Q* Report bioavailability for COc1cc2ncnc(Oc3cccc(NC(=O)Nc4cc(C(C)(C)C(F)(F)F)on4)c3)c2cc1OC [CEP-32496]
*A* 94

*Q* Report bioavailability, nothing else, for this compound: COc1cc2ncnc(Oc3cccc(NC(=O)Nc4cc(C(C)(C)C)on4)c3)c2cc1OC
*A* 49

*Q* Item COc1cc2ncnc(Oc3cccc(NC(=O)Nc4cc(C(C)(C)C)no4)c3)c2cc1OC : provide bioavailability
*A* 6

*Q* Quick one: give measured bioavailability for COc1cc2ncnc(Oc3cccc(NC(=O)Nc4cc(C(C)(C)F)no4)c3)c2cc1OC
*A* 48
